Target: neutrophil elastase (Homo sapiens (Human))
Sequence (P08246 30-247): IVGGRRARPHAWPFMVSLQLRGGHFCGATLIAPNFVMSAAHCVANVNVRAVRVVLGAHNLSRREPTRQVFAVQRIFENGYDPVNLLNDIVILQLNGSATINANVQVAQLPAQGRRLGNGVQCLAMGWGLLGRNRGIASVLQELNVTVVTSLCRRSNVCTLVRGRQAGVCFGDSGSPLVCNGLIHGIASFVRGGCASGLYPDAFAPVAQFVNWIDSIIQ
Test: Human Neutrophil Elastase Assay
Conditions: substrate MeOSuc-Ala-Ala-Pro-Val-AMC
Test readout: IC50

Q: Item CC(=O)C1=C(C)N(c2cccc(C(F)(F)F)c2)C(=O)N(C)C1c1ccc(C#N)cc1-c1nnc(C)o1 (centres unmarked) has what recorded IC50?
A: < 1 nM

Q: Also COCCCN(C)C(=O)c1cc(C#N)ccc1C1C(C(C)=O)=C(C)N(c2cccc(C(F)(F)F)c2)C(=O)N1C (centres unmarked) ?
A: < 1 nM

Q: Also CC(=O)C1=C(C)N(c2cccc(C(F)(F)F)c2)C(=O)N(C)C1c1ccc(C#N)cc1C(=O)NCc1nncn1C (centres unmarked) ?
A: < 1.3 nM

Q: Also CCOC(=O)C1=C(C)N(c2cccc(C(F)(F)F)c2)C(=O)N(C)C1c1ccc(C#N)cc1C(=O)N1CC[C@H](NC)C1 (some centres unmarked) ?
A: < 1 nM

Q: Also CC(=O)C1=C(C)N(c2cccc(C(F)(F)F)c2)C(=O)N(C)C1c1ccc(C#N)cc1-c1cnco1 (centres unmarked) ?
A: < 1 nM

Q: Also CCOC(=O)C1=C(C)N(c2cccc(C(F)(F)F)c2)C(=O)N(C)C1c1ccc(C#N)cc1C(=O)N(C)C (centres unmarked) ?
A: < 1 nM

Q: Also CC(=O)C1=C(C)N(c2cccc(C(F)(F)F)c2)C(=O)N(C)C1c1ccc(C#N)cc1C1=CCOCC1 (centres unmarked) ?
A: < 1 nM

Q: Also CCOC(=O)C1=C(C)N(c2cccc(C(F)(F)F)c2)C(=O)N(C)C1c1ccc(C#N)cc1C(=O)N1CCN2CCCC2C1 (centres unmarked) ?
A: 2.8 nM

Q: Also CC(=O)C1=C(C)N(c2cccc(C(F)(F)F)c2)C(=O)N(C)C1c1ccc(C#N)cc1C(=O)N(C)Cc1ccnn1C (centres unmarked) ?
A: < 1 nM

Q: Also CCOC(=O)C1=C(C)N(c2cccc(C(F)(F)F)c2)C(=O)N(C)C1c1ccc(C#N)cc1C(=O)N1CCCC1 (centres unmarked) ?
A: < 1 nM

Q: Also CN[C@H]1CCN(C(=O)c2cc(C#N)ccc2C2C(C(C)=O)=C(C)N(c3cccc(C(F)(F)F)c3)C(=O)N2C)C1 (some centres unmarked) ?
A: 1.2 nM

Q: Also CC(=O)C1=C(C)N(c2cccc(C(F)(F)F)c2)C(=O)N(C)C1c1ccc(C#N)cc1C(=O)N1CCn2cncc2C1 (centres unmarked) ?
A: < 1 nM

Q: Also CCNC(=O)c1cc(C#N)ccc1C1C(C(=O)OCC)=C(C)N(c2cccc(C(F)(F)F)c2)C(=O)N1C (centres unmarked) ?
A: 3 nM

Q: Also CC(=O)C1=C(C)N(c2cccc(C(F)(F)F)c2)C(=O)N(C)C1c1ccc(C#N)cc1C(=O)NCc1ccnn1C (centres unmarked) ?
A: < 1 nM

* * *

Assay: Metabolic stability with human liver microsomes
Type: in vitro ADME
Conditions: pH 7.6; pooled human liver microsomes, 1 μM compound, 37° C.; read-out: t1/2 INVITRO
Test readout: half-life at 1 μM

Q: Item CC(=O)C1=C(C)N(c2cccc(C(F)(F)F)c2)C(=O)N(C)[C@@H]1c1ccc(C#N)cc1-c1ccc(=O)n(C)c1 has what recorded half-life at 1 μM?
A: > 2.17 h

Q: Also CC(=O)C1=C(C)N(c2cccc(C(F)(F)F)c2)C(=O)N(C)C1c1ccc(C#N)cc1C(=O)N1CCn2ncnc2C1 (centres unmarked) ?
A: 2 h

Q: Also CC(=O)C1=C(C)N(c2cccc(C(F)(F)F)c2)C(=O)N(C)[C@@H]1c1ccc(C#N)cc1-c1ccn(C)c(=O)c1 ?
A: > 2.17 h

Q: Also CC(=O)C1=C(C)N(c2cccc(C(F)(F)F)c2)C(=O)N(C)C1c1ccc(C#N)cc1-c1nnc(C)o1 (centres unmarked) ?
A: > 2.17 h

Q: Also CC(=O)C1=C(C)N(c2cccc(C(F)(F)F)c2)C(=O)N(C)C1c1ccc(C#N)cc1C(=O)NCC(C)(C)O (centres unmarked) ?
A: > 2.17 h

Values from patent US9290457B2
